- system_tested: CDK8 (Homo sapiens (Human))
- method_description: LanthaScreen Eu Binding Assay, Thermo Fisher SelectScreen kinase service
- condition_context: 10 μM
Tag: met if measured CDK8 Inhibition percentage at 10 μM is not below 90%, not met if it is.

Worked examples follow.
# smiles_str, system_tested, assigned_category
data = [
    ("CNC(=O)c1cc(Oc2ccc(NS(=O)(=O)c3ccc4c(c3)C(=C(C)C)C(=O)N4)cc2)ccn1", "CDK8 (Homo sapiens (Human))", "not met"),
    ("CNC(=O)c1cc(Oc2ccc(NS(=O)(=O)c3ccc4c(c3)C(=C(C)C)C(=O)N4)c(F)c2)ccn1", "CDK8 (Homo sapiens (Human))", "met"),
    ("CC(C)=C1C(=O)Nc2ccc(S(=O)(=O)Nc3nnc(-c4ccccc4)s3)cc21", "CDK8 (Homo sapiens (Human))", "met"),
]

Entry CC(C)=C1C(=O)Nc2ccc(S(=O)(=O)Nc3ccc(NC(=O)c4ccccc4)cc3)cc21 : is its CDK8 Inhibition percentage at 10 μM no less than 90%? not met

====

- system_tested: CDK8 (Homo sapiens (Human), UniProt P49336)
- Sequence (P49336 whole entry, looked up): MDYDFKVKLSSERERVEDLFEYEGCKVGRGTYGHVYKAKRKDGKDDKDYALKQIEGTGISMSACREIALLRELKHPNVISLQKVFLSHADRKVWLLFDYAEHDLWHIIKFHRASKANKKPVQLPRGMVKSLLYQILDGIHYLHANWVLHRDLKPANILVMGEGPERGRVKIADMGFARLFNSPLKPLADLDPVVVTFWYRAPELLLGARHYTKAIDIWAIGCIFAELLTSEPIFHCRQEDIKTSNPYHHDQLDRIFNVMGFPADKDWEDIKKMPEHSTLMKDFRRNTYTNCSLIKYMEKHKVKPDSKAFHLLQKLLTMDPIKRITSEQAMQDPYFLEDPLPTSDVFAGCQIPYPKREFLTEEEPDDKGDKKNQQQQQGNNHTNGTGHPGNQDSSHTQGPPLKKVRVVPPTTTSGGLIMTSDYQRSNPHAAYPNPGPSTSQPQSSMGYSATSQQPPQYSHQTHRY
- Sequence (P24863 whole entry partner, looked up): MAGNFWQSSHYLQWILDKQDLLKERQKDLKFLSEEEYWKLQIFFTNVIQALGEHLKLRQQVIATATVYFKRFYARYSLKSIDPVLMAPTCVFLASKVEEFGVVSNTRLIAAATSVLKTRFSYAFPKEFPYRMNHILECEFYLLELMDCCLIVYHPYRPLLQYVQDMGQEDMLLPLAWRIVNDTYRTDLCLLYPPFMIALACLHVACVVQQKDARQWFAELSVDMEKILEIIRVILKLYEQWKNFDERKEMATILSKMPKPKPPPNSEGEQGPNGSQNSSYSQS
- method_description: LanthaScreen Eu Binding Assay, Thermo Fisher SelectScreen kinase service
- condition_context: read-out: Inhibition of CDK8 IC50
Recorded pIC50 values for a group of molecules are listed next.
Conceptually, pIC50 converts a concentration in mol/L into minus its log10.

# molecule, pIC50
records = [
    ("CC(C)=C1C(=O)Nc2ccc(S(=O)(=O)Nc3nnc(-c4ccccc4)s3)cc21 [Compound g]", 6.47),
    ("CNC(=O)c1cc(Oc2ccc(NS(=O)(=O)c3ccc4c(c3)C(=C(C)C)C(=O)N4)c(F)c2)ccn1 [Compound k]", 6.89),
    ("CC(C)=C1C(=O)Nc2ccc(S(=O)(=O)Nc3cc(-c4ccccc4)[nH]n3)cc21 [Compound e]", 5.79),
]

Note: attention shifts to another entry.
I'd like to know its pIC50. The molecule in question is CC(C)=C1C(=O)Nc2ccc(S(=O)(=O)Nc3nc4ccccc4s3)cc21 [Compound h] 6.06

====

- Test system: DU145 cells
- method_description: MTT cell cytotoxicity assay
- Format: cell-based, human
- condition_context: DU145, 24 h
metric: IC50

Which value of IC50 has been reported for CNC(=O)c1cc(Oc2ccc(NS(=O)(=O)c3ccc4c(c3)C(=C(C)C)C(=O)N4)c(F)c2)ccn1 [Compound k] in the records? > 30 µM

====

- system_tested: CDK8 (Homo sapiens (Human), UniProt P49336)
- method_description: LanthaScreen Eu Binding Assay, Thermo Fisher SelectScreen kinase service
- condition_context: read-out: CDK8 Inhibition percentage at 10 μM
This listing pairs compounds with measured inhibition at 10 µM.
Hey, just the number and the unit after it is fine.

Solved entries (count: 4):
# compound, inhibition at 10 µM
data = [
    ("CC(C)=C1C(=O)Nc2ccc(S(=O)(=O)Nc3cc(-c4ccccc4)[nH]n3)cc21 [Compound e]", "82%"),
    ("CC(C)=C1C(=O)Nc2ccc(S(=O)(=O)Nc3ccc(C(=O)c4ccccc4)cc3)cc21 [Compound d]", "99%"),
    ("CC(=O)c1cccc(NS(=O)(=O)c2ccc3c(c2)C(=C(C)C)C(=O)N3)c1 [Reference Compound, reference compound]", "87%"),
    ("CC(C)=C1C(=O)Nc2ccc(S(=O)(=O)Nc3cccc4c(=O)[nH][nH]c(=O)c34)cc21 [Compound n]", "74%"),
]

Need inhibition at 10 µM, item CC(C)=C1C(=O)Nc2ccc(S(=O)(=O)Nc3nc4ccccc4s3)cc21 [Compound h] 91%

Now the compound CC(C)=C1C(=O)Nc2ccc(S(=O)(=O)Nc3ccc(Oc4ccc([N+](=O)[O-])cc4)cc3)cc21 [Compound a] 48%

Further, for CC(C)=C1C(=O)Nc2ccc(S(=O)(=O)Nc3ccc(C)c(Nc4nccc(-c5cccnc5)n4)c3)cc21 [Compound m] ? 46%

Also CC(C)=C1C(=O)Nc2ccc(S(=O)(=O)Nc3ccc(Nc4ccccc4)cc3)cc21 [Compound b] ? 76%

====

- System: PC-3 cells
- method_description: MTT cell cytotoxicity assay
- Format: cell-based, human
- condition_context: PC-3, 24 h
- Procedure: FIGS. 2A-2D show the evaluation of CDK8 inhibition by compound k. […] Cell viability was measured by MTT assay, and the 50% inhibitory concentration (IC50) values were calculated by a sigmoidal dose-response equation. […] Whole-cell lysates were subjected to western blotting with the indicated antibodies. […] Cell cytotoxicity was evaluated using the MTT assay. […] The cells were then pelleted and lysed in 100 μL of dimethyl sulfoxide, and the absorbance at 550 nm was measured with a microplate reader.
metric: IC50

May I ask what IC50 has been recorded for CNC(=O)c1cc(Oc2ccc(NS(=O)(=O)c3ccc4c(c3)C(=C(C)C)C(=O)N4)c(F)c2)ccn1 ? > 30 µM

====

// reported pIC50 per item
- system_tested: UniProtKB P49336
- method_description: LanthaScreen Eu Binding Assay, Thermo Fisher SelectScreen kinase service
- condition_context: read-out: Inhibition of CDK8 IC50
Note: pIC50 values are expressed as the negative base-10 logarithm of concentration in M.

# compound, system_tested, pIC50
records = [
    ("CC(C)=C1C(=O)Nc2ccc(S(=O)(=O)Nc3cc(-c4ccc(C)cc4)[nH]n3)cc21", "UniProtKB P49336", 6.10),
]

Please report the recorded pIC50 for CC(C)=C1C(=O)Nc2ccc(S(=O)(=O)Nc3ccc(-n4ccnc4)cc3)cc21 . 6.02

Also CC(C)=C1C(=O)Nc2ccc(S(=O)(=O)Nc3ccc(C(=O)c4ccccc4)cc3)cc21 , if possible. 6.42

Likewise for CC(C)=C1C(=O)Nc2ccc(S(=O)(=O)Nc3ccc(Nc4ccccc4)cc3)cc21 ? 5.80

Request: CC(C)=C1C(=O)Nc2ccc(S(=O)(=O)Nc3cccc4c(=O)[nH][nH]c(=O)c34)cc21 5.52

====

- System: DU145 cells
- method_description: MTT cell cytotoxicity assay
- Type: cell-based, human
- condition_context: DU145, 72 h
pIC50: −log10 of the molar value.
metric: pIC50

If you can, please state the reported pIC50 value of CNC(=O)c1cc(Oc2ccc(NS(=O)(=O)c3ccc4c(c3)C(=C(C)C)C(=O)N4)c(F)c2)ccn1 [Compound k] . < 4.52

====

# CDK8 Inhibition percentage at 10 μM listing for each entry below
- system_tested: CDK8 (Homo sapiens (Human), UniProt P49336)
- method_description: LanthaScreen Eu Binding Assay, Thermo Fisher SelectScreen kinase service
- condition_context: 10 μM
Output spec: scalar in %, unitless text.

Some compounds with known CDK8 Inhibition percentage at 10 μM results, for comparison:
# smiles_str, CDK8 Inhibition percentage at 10 μM / %
data = [
    ("CC(C)=C1C(=O)Nc2ccc(S(=O)(=O)Nc3ccc(-n4ccnc4)cc3)cc21", 92),
    ("CNC(=O)c1ccc(NS(=O)(=O)c2ccc3c(c2)C(=C(C)C)C(=O)N3)cc1F", 92),
]

Below: the item to evaluate.
Entry under review: CC(C)=C1C(=O)Nc2ccc(S(=O)(=O)Nc3cc(-c4ccc(C)cc4)[nH]n3)cc21 . Reported CDK8 Inhibition percentage at 10 μM? 89

====

- system_tested: CDK8 (Homo sapiens (Human))
- method_description: LanthaScreen Eu Binding Assay, Thermo Fisher SelectScreen kinase service
- condition_context: read-out: Inhibition of CDK8 IC50
In this section, each of the compounds is paired with its reported IC50.
Lab book: enter the figure in µM, no units written.

Reference set, count: 2
# compound, metric, units_text, test_value
rows = [
    ("CNC(=O)c1cc(Oc2ccc(NS(=O)(=O)c3ccc4c(c3)C(=C(C)C)C(=O)N4)cc2)ccn1 [Compound j]", "IC50", "µM", 1.24),
    ("CNC(=O)c1ccc(NS(=O)(=O)c2ccc3c(c2)C(=C(C)C)C(=O)N3)cc1F [Compound l]", "IC50", "µM", 0.652),
]

Using the record for CC(=O)c1cccc(NS(=O)(=O)c2ccc3c(c2)C(=C(C)C)C(=O)N3)c1 [Reference Compound, reference compound] , report its IC50. 1.68
